tested on: NCI/ADR-RES; assay: NCI tumour cell line growth inhibition, 48 h
Active and inactive are the calls of the source. Cut-off read from the data, not from the text of the source: active = GI50 up to about 1.1 µM and inactive = higher.
Assign a class; possible classes are active, inactive

Below, 5 molecules whose answers are already recorded.
[[record]]
molecule = "O=C(O)CC1OCC=C2C[N+]3([O-])CCC45c6ccccc6NC4C1C2CC53 (stereo not given)"
class = "inactive"

[[record]]
molecule = "O=CNc1cccc2c3c([nH]c12)CCCCCC3"
class = "inactive"

[[record]]
molecule = "CCOP(=O)(OCC)/C(C#N)=C/c1cnc(-c2ccccc2)[nH]1"
class = "inactive"

[[record]]
molecule = "COc1c2c3c4c(c(OC)c(=O)c5c(O)cc(OC)c(c6c(OC)cc(O)c(c1=O)c63)c54)C(C(C)O)C2C(C)=O (stereo not given)"
class = "active"

[[record]]
molecule = "Nc1nc(Cl)cc(NCC2(CO)CC(=O)C2)n1"
class = "inactive"


What did this assay record as the result for O=C1C=CC(=O)c2ncccc21 ?
inactive

Dear all, I need the recorded test outcome for OC(COC(c1ccccc1)(c1ccccc1)c1ccccc1)C(O)CC1SCCS1 (stereo not given) , thank you.
inactive

Could you kindly confirm the outcome this assay logged for COC(=O)C(CNC(=O)/C=C/c1ccc(OC)c(OC)c1)NC(=O)/C=C/c1ccc(OC)c(OC)c1 (stereo not given) ?
inactive

// outcome(item) with item = COc1cccc(CC2C(=O)N/C(=N\C(C)=O)N2C)c1OC(C)=O (stereo not given)
inactive

Hi team, can someone confirm the assay call for COc1ccc([N+](=O)[O-])c2c(NCCCN(C)C)c3ccccc3nc12 ?
inactive

What did this assay record as the result for CC1(C)COC(c2ccccc2-c2ccccc2)=N1 ?
inactive

Short answer needed: outcome of this test for CN(C)c1ccc(/C=N\NC(=O)CSCC(=O)N/N=C/c2ccc(N(C)C)cc2)cc1 ?
inactive

---

test system: NCI-H460; assay: NCI tumour cell line growth inhibition, 48 h
Activity calls are given as the source filed them. Cut-off read from the data, not from the text of the source: active = GI50 up to about 1.1 µM and inactive = higher.
Give measured GI50 for each item. Keep answers brief.

[[record]]
compound = "COC(=O)C1=C(O)c2cc(OC)c(OC)c(OC)c2C(c2ccc3c(c2)OCO3)[C@@H]1C(=O)OC (some centres undefined)"
measured_endpoint = "GI50"
result = "5.47 µM (inactive)"

[[record]]
compound = "C/C(=N\\NS(=O)(=O)c1ccc(C)cc1)c1ccccn1"
measured_endpoint = "GI50"
result = "49.7 µM (inactive)"

[[record]]
compound = "COC(=O)c1sc2c(Cl)c(Cl)sc2c1Cl"
measured_endpoint = "GI50"
result = "> 100 µM (inactive)"

[[record]]
compound = "CCOC(=O)N1c2c(ccn2C)-c2ccn(C)c2N1C(=O)OCC"
measured_endpoint = "GI50"
result = "19.4 µM (inactive)"

[[record]]
compound = "CC1=NN(c2cccc(S(=O)(=O)O)c2)C2(C1)SCC(=O)N2c1nc2ccccc2s1 (centres undefined)"
measured_endpoint = "GI50"
result = "> 100 µM (inactive)"

[[record]]
compound = "C[C@H](CCC(=O)O)[C@H]1CC[C@H]2[C@@H]3C(=O)C[C@@H]4C[C@H](O)CC[C@]4(C)[C@H]3C[C@H](O)[C@]12C"
measured_endpoint = "GI50"
result = "> 100 µM (inactive)"

[[record]]
compound = "C[C@]12CC[C@@H]3c4cc(C=O)c(OCc5ccccc5)cc4CC[C@H]3[C@@H]1CCC2OCc1ccccc1 (some centres undefined)"
measured_endpoint = "GI50"
result = "> 100 µM (inactive)"

[[record]]
compound = "CCCCCCCCCN1CCC(=O)C(C(=O)OC)C1 (centres undefined)"
measured_endpoint = "GI50"
result = "17.6 µM (inactive)"

[[record]]
compound = "CCOC(=O)C1(C#N)CC1"
measured_endpoint = "GI50"
result = "> 100 µM (inactive)"

[[record]]
compound = "CCOP(=O)(OCC)/C(C#N)=C/c1cnc(-c2ccccc2)[nH]1"
measured_endpoint = "GI50"
result = "> 100 µM (inactive)"


Could I get GI50 for every one of these entries?
1. COC(=O)/C(=C\c1cn(C(C)=O)c2ccccc12)P(=O)(OC)OC
2. Cc1c(CN)c(C)c(CN)c(C)c1CN
3. O=c1c2cc(-c3ccccc3)sc2nc2sc(-c3ccccc3)nn12
4. Cc1ccc(C(=O)N(C2CCCCC2)C2CCCCC2)cc1/N=N/N(C)C
5. O=[N+]([O-])c1ccc(/C=N/CC2CCCN3CCCCC23)cc1 (centres undefined)
6. COC(=O)C(Cc1ccccc1)NS(=O)(=O)c1ccc(-c2c3nc(c(-c4ccc(S(=O)(=O)NC(Cc5ccccc5)C(=O)OC)cc4)c4ccc([nH]4)c(-c4ccc(S(=O)(=O)NC(Cc5ccccc5)C(=O)OC)cc4)c4nc(c(-c5ccc(S(=O)(=O)NC(Cc6ccccc6)C(=O)OC)cc5)c5ccc2[nH]5)C=C4)C=C3)cc1 (centres undefined)
7. O=C(c1ccco1)N(C(=S)N1CCN(c2ccccn2)CC1)c1ccccc1
8. Cc1ccc(NC(Nc2ccc(C)cc2C)=C(/C=C(\Cl)[N+](=O)[O-])[N+](=O)[O-])c(C)c1

15 µM (inactive)
> 100 µM (inactive)
> 100 µM (inactive)
15.1 µM (inactive)
> 100 µM (inactive)
85.5 µM (inactive)
> 100 µM (inactive)
16.6 µM (inactive)

Quick one: GI50 of COc1cc2c(cc1OCCCOc1cc3c(cc1OC)C(=O)N1CCC[C@H]1C(=O)N3)N=C[C@@H]1CCCN1C2=O ?
19.9 µM (inactive)
